Form field: growth (one value per entry).
- Test system: 786-0 renal
- METHOD_NOTES: NCI-60 one-dose screen, 48 h (100 = growth as untreated, 0 = no growth, -100 = all killed)
- EXPERIMENTAL_SETUP: 10 µM
This is part of a sample that, as a whole, favours compounds with a hit. Of some 83,000 tested, about 20% had one in any assay.
MEASURE: growth (%)

compound=CCn1c2ccc(O)cc2c2c(C)c3c[n+](C)ccc3c(C)c21 target_or_test_system="786-0 renal" measure=growth value_observed=13.7
compound=COc1cc(NC(=O)C2=C(N3CCOCC3)/C(=C/c3ccc(Cl)cc3)CC2)cc(OC)c1OC target_or_test_system="786-0 renal" measure=growth value_observed=93.2
compound=CN(C)CCCOc1ccccc1NC1=C(Cl)C(=O)C(Nc2ccccc2OCCCN(C)C)=C(Cl)C1=O target_or_test_system="786-0 renal" measure=growth value_observed=-95.4
compound=C[C@H]1[C@H](OC(=O)CCC(=O)O)O[C@@H]2O[C@]3(C)CC[C@H]4[C@H](C)CC[C@@H]1[C@@]24OO3 target_or_test_system="786-0 renal" measure=growth value_observed=33.5
compound=Cc1ccc(-n2c(C)nn3c(=O)c4c5c(sc4nc23)CN(C)CC5)cc1 target_or_test_system="786-0 renal" measure=growth value_observed=86.3
compound=C#CCOc1c(OC)cc(C(=O)/C(C)=C/c2cccc(N=[N+]=[N-])c2)cc1OC target_or_test_system="786-0 renal" measure=growth value_observed=23.7
compound="CCC(c1ccc(OC)cc1)C(CC)c1ccc(O)c(CN2CCN(C)CC2)c1 (stereo not drawn)" target_or_test_system="786-0 renal" measure=growth value_observed=57.6
compound=O=C(O)c1ccc(-n2cc(CNc3ccc(Oc4ccccc4)cc3)c(-c3ccccc3)n2)cc1 target_or_test_system="786-0 renal" measure=growth value_observed=90.6
compound=O=C1CCn2c1c(O)c1ccccc1c2=O target_or_test_system="786-0 renal" measure=growth value_observed=105
compound=Cc1n[nH]c(C)c1N=Nc1cccc2c1C(=O)c1ccccc1C2=O target_or_test_system="786-0 renal" measure=growth value_observed=101
compound=C=CCNCCN1C(=O)c2ccc3c4c(ccc(c24)C1=O)C(=O)N(CCNCC=C)C3=O target_or_test_system="786-0 renal" measure=growth value_observed=-2.95
compound=O=C1CC(=O)N(C(=O)c2nn(-c3ccc(Cl)cc3)cc2O)N1 target_or_test_system="786-0 renal" measure=growth value_observed=50.7
compound=COc1ccc(Cc2cnc(N)nc2N)cc1OC target_or_test_system="786-0 renal" measure=growth value_observed=109
compound=CCCCCCCCCCOC(c1ccccc1)c1ccccc1 target_or_test_system="786-0 renal" measure=growth value_observed=98
compound=CSc1nc2c(c(=O)n1C)CN(Cc1ccccc1)C(=O)CN2 target_or_test_system="786-0 renal" measure=growth value_observed=91.9
compound=Cc1cc(CSc2ccccc2C(=O)N2CC=C(c3ccccc3)CC2)on1 target_or_test_system="786-0 renal" measure=growth value_observed=94.5
compound="COc1ccc(C2CC(c3cc(OC)c(OC)c(OC)c3)=NN2)cc1 (stereo not drawn)" target_or_test_system="786-0 renal" measure=growth value_observed=92.1
compound=COc1cc2cc(Oc3ccc(NC(=O)c4cccc(C(F)(F)F)c4)cc3)c(C)nc2cc1OC target_or_test_system="786-0 renal" measure=growth value_observed=45.4
compound="COc1cc(/C=C2\\CCCC3C2=Nc2ccccc2NC3c2cc(OC)c(OC)c(OC)c2)cc(OC)c1OC (stereo not drawn)" target_or_test_system="786-0 renal" measure=growth value_observed=1.85
compound=NS(=O)(=O)c1ccc(Br)cc1 target_or_test_system="786-0 renal" measure=growth value_observed=89
compound=O=[N+]([O-])c1ccc(NCSc2ccc(Cl)cc2)cc1 target_or_test_system="786-0 renal" measure=growth value_observed=93.4
compound=CCCCC/C=C/C/C=C/CCCCCCCC1=NC(C)(C)CN1C(C)C target_or_test_system="786-0 renal" measure=growth value_observed=62.4
compound=S=C(NCc1ccccc1)NCc1ccccc1 target_or_test_system="786-0 renal" measure=growth value_observed=96.6
compound=CC(C)C[C@H](NC(=O)Cn1cccc(CNC(=O)c2ccccc2)c1=O)B(O)O target_or_test_system="786-0 renal" measure=growth value_observed=29.5
compound=NNC(=O)Oc1c(Cl)cc(Cl)cc1[N+](=O)[O-] target_or_test_system="786-0 renal" measure=growth value_observed=105
compound=Cc1cn(-c2cc(F)cc(NC(=O)c3ccc(C)c(Nc4nccc(-c5cccnc5)n4)c3)c2)cn1 target_or_test_system="786-0 renal" measure=growth value_observed=-6.06
compound=NC(N)=N/N=C(\N=Nc1ccccc1)c1ccc(Cl)cc1 target_or_test_system="786-0 renal" measure=growth value_observed=46.7
compound=CCNc1nc(C(F)(F)F)nc2c1sc(=S)n2-c1ccccc1 target_or_test_system="786-0 renal" measure=growth value_observed=101
